System: SK-MEL-28 melanoma
EXPERIMENT: NCI-60 one-dose screen, 48 h (100 = growth as untreated, 0 = no growth, -100 = all killed)
APPLIED CONDITIONS: 10 µM unless noted
This is part of a sample that, as a whole, favours compounds with a hit. Of some 83,000 tested, about 20% had one in any assay.
compounds and their reported growth
Reply numerically in %, unit not repeated.

>>> print(df.to_string())
                         compound           tested_on  uom  numeric_value
0     CCOC(=O)C(=O)CC(=O)c1ccccc1  SK-MEL-28 melanoma    %            106
1       CCOc1ccc(C(=O)NCC(C)C)cc1  SK-MEL-28 melanoma    %            106
2  CCCCc1ccc2nc(NC(=O)OC)[nH]c2c1  SK-MEL-28 melanoma    %           58.8

The reported growth of the compound COC(=O)c1cccc([N+](=O)[O-])c1 was 102

---

compounds and their reported growth
System: SK-MEL-28 melanoma
EXPERIMENT: NCI-60 one-dose screen, 48 h (100 = growth as untreated, 0 = no growth, -100 = all killed)
APPLIED CONDITIONS: 10 µM unless noted
This is part of a sample that, as a whole, favours compounds with a hit. Of some 83,000 tested, about 20% had one in any assay. Activity calls are given as the source filed them. Rule for the calls: active = growth percent below 10; inactive = the rest.

Completed entries (count: 2):
                              compound           tested_on            result
0               COc1ccc2c(ccc[n+]2C)c1  SK-MEL-28 melanoma   111% (inactive)
1  O=C(c1ccccc1)c1ccc(-c2ccc(O)cc2)cc1  SK-MEL-28 melanoma  75.1% (inactive)

Now for another entry.
The reported growth of the compound Clc1cccc(Cl)c1C1CSc2ccccc2N=C1c1ccccc1 (stereo not drawn) was 90.4% (inactive)

---

molecules and their reported growth
System: NCI/ADR-RES ovarian
EXPERIMENT: NCI-60 one-dose screen, 48 h (100 = growth as untreated, 0 = no growth, -100 = all killed)
APPLIED CONDITIONS: 10 µM unless noted
The panel holds about 83,000 compounds, 20% with a hit somewhere; the sample as a whole holds those more often. Active and inactive are the calls of the source. Rule for the calls: active = growth percent below 10; inactive = the rest.

In [3]: df
Out[3]:
                                   molecule            tested_on            result
0                 CSc1nc2[nH]ncc2c(=O)[nH]1  NCI/ADR-RES ovarian  99.1% (inactive)
1                    Cc1cc(C)cc(OCC(=O)O)c1  NCI/ADR-RES ovarian   105% (inactive)
2  CC1CN(CCO)CC(C)O1 (configuration not stated)  NCI/ADR-RES ovarian   106% (inactive)
3        CCOC(=O)/C(C#N)=C\c1c[nH]c2ccccc12  NCI/ADR-RES ovarian  88.5% (inactive)
4         CCN(C(C)=O)c1ccc([N+](=O)[O-])cc1  NCI/ADR-RES ovarian   102% (inactive)

The reported growth of the molecule O=S(=O)(OCCOS(=O)(=O)c1ccccc1)c1ccccc1 was 95.5% (inactive)

The reported growth of the molecule N#CC1(O)CCCCC1 was 94% (inactive)
